# target system: Human Thrombin (Homo sapiens)
# test method notes: Inhibition of amidase activity of thrombin (Kass)
# Assay type: biochemical
Where a name gives a salt, the structure may show the parent alone.

{"compound": "N=C(N)c1ccc(CNC(=O)[C@@H]2C[C@@H]3CCCC[C@@H]3N2C(=O)[C@@H](CC2CCCCC2)NCC(=O)O)cc1 (relative stereo)", "target system": "Human Thrombin (Homo sapiens)", "Kass Human Thrombin": 400}
{"compound": "CCS(=O)(=O)N[C@H](Cc1ccccc1)C(=O)N1[C@H](C(=O)NCc2ccc(C(=N)N)cc2)C[C@@H]2CCCC[C@@H]21 (relative stereo)", "target system": "Human Thrombin (Homo sapiens)", "Kass Human Thrombin": 610}
{"compound": "CCS(=O)(=O)N[C@H](Cc1ccccc1)C(=O)N1CCC[C@H]1C(=O)NCCCCNC(=N)N [Example 1, EtSO2 -D-Phe-Pro-Agm.HCl]", "target system": "Human Thrombin (Homo sapiens)", "Kass Human Thrombin": 3.3}

###

Collected Kass Trypsin values appear next to each entry.
# target system: Bovine trypsin (Bos taurus, UniProt P00760)
# Construct: Bovine trypsin is purchased; purchased Worthington Biochemicals, Freehold, N.J
# Sequence (P00760 24-246): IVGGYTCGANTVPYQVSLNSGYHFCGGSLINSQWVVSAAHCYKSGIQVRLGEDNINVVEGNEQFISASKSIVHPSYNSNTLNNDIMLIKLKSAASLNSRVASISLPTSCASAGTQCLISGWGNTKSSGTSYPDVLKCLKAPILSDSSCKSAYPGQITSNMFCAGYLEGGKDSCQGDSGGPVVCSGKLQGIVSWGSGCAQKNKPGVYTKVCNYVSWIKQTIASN
# test method notes: Kass with trypsin, chromogenic substrate
# Type: biochemical
# run conditions: substrate N-Benzoyl-Phe-Val-Arg-p-nitroanilide

{"compound": "O=C(O)CN[C@H](CC1CCCCC1)C(=O)N1CCC[C@H]1C(=O)NCCC1=CCNCC1", "target system": "Bovine trypsin (Bos taurus, UniProt P00760)", "Kass Trypsin": "0.21 × 10^6 (L/mole)"}
{"compound": "NCC1CCC(CNC(=O)[C@@H]2CCCN2C(=O)[C@@H](CC2CCCCC2)NCC(=O)O)CC1 (stereo partly shown)", "target system": "Bovine trypsin (Bos taurus, UniProt P00760)", "Kass Trypsin": "0.24 × 10^6 (L/mole)"}
{"compound": "N=C(N)c1ccc(CNC(=O)[C@@H]2CCCN2C(=O)[C@H]2C[C@H]3CCCC[C@H]3CN2)cc1 [Example 19, D-3-Piq-Pro-p-NHCH2 C6 H4 C(NH)NH2.3HCl]", "target system": "Bovine trypsin (Bos taurus, UniProt P00760)", "Kass Trypsin": "41 × 10^6 (L/mole)"}
{"compound": "Cl.N=C(N)c1cc(CNC(=O)[C@@H]2CCCN2C(=O)[C@@H](CC2CCCCC2)NCC(=O)O)cs1", "target system": "Bovine trypsin (Bos taurus, UniProt P00760)", "Kass Trypsin": "570 × 10^6 (L/mole)"}
{"compound": "N=C(N)c1cccc(CNC(=O)[C@@H]2CCCN2C(=O)[C@@H]2NCC[C@@H]3CCCC[C@@H]32)c1", "target system": "Bovine trypsin (Bos taurus, UniProt P00760)", "Kass Trypsin": "0.01 × 10^6 (L/mole)"}
{"compound": "CCS(=O)(=O)N[C@H](Cc1ccccc1)C(=O)N1CCC[C@H]1C(=O)NCc1cccc(C(=N)N)c1", "target system": "Bovine trypsin (Bos taurus, UniProt P00760)", "Kass Trypsin": "0.03 × 10^6 (L/mole)"}
{"compound": "CCS(=O)(=O)N[C@H](Cc1ccccc1)C(=O)N1CCC[C@H]1C(=O)NCCc1cccc(C(=N)N)c1", "target system": "Bovine trypsin (Bos taurus, UniProt P00760)", "Kass Trypsin": "0.02 × 10^6 (L/mole)"}

###

Collected Kass Human Thrombin values appear next to each entry.
# target system: UniProt P00734
# test method notes: Inhibition of amidase activity of thrombin (Kass)
# Assay type: biochemical
# run conditions: mean over a range of concentrations; […]
Counter-ions that a name gives are not always drawn.
quantity measured: Kass Human Thrombin

{"molecule": "CCS(=O)(=O)N[C@H](CC1CCCCC1)C(=O)N1CCC[C@H]1C(=O)NCc1ccnc(N)c1 [Example 83]", "target system": "UniProt P00734", "quantity measured": "Kass Human Thrombin", "result": "2.4 × 10^6 (L/mole)"}
{"molecule": "CCS(=O)(=O)N[C@H](Cc1ccccc1)C(=O)N1CCC[C@H]1C(=O)NCCc1ccc(NC(=N)N)cc1 [Example 35]", "target system": "UniProt P00734", "quantity measured": "Kass Human Thrombin", "result": "0.09 × 10^6 (L/mole)"}
{"molecule": "CCS(=O)(=O)N[C@H](CC1CCCCC1)C(=O)N1CCC[C@H]1C(=O)NCc1ccc(CN)cc1 [Example 81]", "target system": "UniProt P00734", "quantity measured": "Kass Human Thrombin", "result": "5.3 × 10^6 (L/mole)"}
{"molecule": "N=C(N)c1cccc(CCNC(=O)[C@@H]2CCCN2C(=O)[C@@H]2NCC[C@@H]3CCCC[C@@H]32)c1 [Example 29]", "target system": "UniProt P00734", "quantity measured": "Kass Human Thrombin", "result": "0.76 × 10^6 (L/mole)"}
{"molecule": "Nc1ccc(CNC(=O)[C@@H]2CCCN2C(=O)[C@@H](CC2CCCCC2)NCC(=O)O)c(F)c1 [Example 64]", "target system": "UniProt P00734", "quantity measured": "Kass Human Thrombin", "result": "15 × 10^6 (L/mole)"}
{"molecule": "N=C(N)c1ccc(CCCNC(=O)[C@@H]2CCCN2C(=O)[C@@H]2NCC[C@@H]3CCCC[C@@H]32)cc1 [Example 32]", "target system": "UniProt P00734", "quantity measured": "Kass Human Thrombin", "result": "0.13 × 10^6 (L/mole)"}
{"molecule": "N=C(N)Nc1cccc(CCNC(=O)[C@@H]2CCCN2C(=O)[C@@H]2NCC[C@@H]3CCCC[C@@H]32)c1 [Example 41]", "target system": "UniProt P00734", "quantity measured": "Kass Human Thrombin", "result": "0.01 × 10^6 (L/mole)"}
{"molecule": "CCS(=O)(=O)N[C@H](Cc1ccccc1)C(=O)N1CCC[C@H]1C(=O)NCc1ccc(NC(=N)N)cc1 [Example 34]", "target system": "UniProt P00734", "quantity measured": "Kass Human Thrombin", "result": "0.65 × 10^6 (L/mole)"}
{"molecule": "CCS(=O)(=O)N[C@H](Cc1ccccc1)C(=O)N1CCC[C@H]1C(=O)NCCc1cccc(C(=N)N)c1 [Example 27]", "target system": "UniProt P00734", "quantity measured": "Kass Human Thrombin", "result": "0.29 × 10^6 (L/mole)"}
{"molecule": "CCS(=O)(=O)N[C@H](Cc1ccccc1)C(=O)N1CCC[C@H]1C(=O)NCCCc1cccc(C(=N)N)c1 [Example 31]", "target system": "UniProt P00734", "quantity measured": "Kass Human Thrombin", "result": "0.07 × 10^6 (L/mole)"}
{"molecule": "N=C(N)c1ccc(CNC(=O)[C@@H]2CCCN2C(=O)[C@@H](CC2CCCCC2)NCC(=O)O)nn1 [Example 69]", "target system": "UniProt P00734", "quantity measured": "Kass Human Thrombin", "result": "340 × 10^6 (L/mole)"}
{"molecule": "N=C(N)c1cccc(CNC(=O)[C@@H]2CCCN2C(=O)[C@@H]2NCC[C@@H]3CCCC[C@@H]32)c1 [Example 25]", "target system": "UniProt P00734", "quantity measured": "Kass Human Thrombin", "result": "0.43 × 10^6 (L/mole)"}
{"molecule": "N=C(N)N1CCC(CNC(=O)[C@@H]2CCCN2C(=O)[C@@H](CC2CCCCC2)NCC(=O)O)CC1 [Example 56]", "target system": "UniProt P00734", "quantity measured": "Kass Human Thrombin", "result": "490 × 10^6 (L/mole)"}
{"molecule": "CCS(=O)(=O)N[C@H](Cc1ccccc1)C(=O)N1CCC[C@H]1C(=O)NCCc1cccc(NC(=N)N)c1 [Example 37]", "target system": "UniProt P00734", "quantity measured": "Kass Human Thrombin", "result": "0.02 × 10^6 (L/mole)"}
{"molecule": "Nc1ccc(CNC(=O)[C@@H]2CCCN2C(=O)[C@@H](CC2CCCCC2)NCC(=O)O)cn1 [Example 74]", "target system": "UniProt P00734", "quantity measured": "Kass Human Thrombin", "result": "29 × 10^6 (L/mole)"}
{"molecule": "N=C(N)Nc1ccc(CNC(=O)[C@@H]2CCCN2C(=O)[C@@H]2NCC[C@@H]3CCCC[C@@H]32)cc1 [Example 38]", "target system": "UniProt P00734", "quantity measured": "Kass Human Thrombin", "result": "1.1 × 10^6 (L/mole)"}
{"molecule": "CCS(=O)(=O)N[C@H](CC1CCCCC1)C(=O)N1CCC[C@H]1C(=O)NCc1ccc(N)cc1F [Example 82]", "target system": "UniProt P00734", "quantity measured": "Kass Human Thrombin", "result": "5.0 × 10^6 (L/mole)"}
{"molecule": "N=C(N)c1ccc(CNC(=O)[C@@H]2CCCN2C(=O)[C@@H](CC2CCCCC2)NCCC(=O)O)cc1 [Example 52]", "target system": "UniProt P00734", "quantity measured": "Kass Human Thrombin", "result": "700 × 10^6 (L/mole)"}
{"molecule": "N=C(N)C1=CNC(CNC(=O)[C@@H]2CCCN2C(=O)[C@@H](CC2CCCCC2)NCC(=O)O)CC1 (some centres unmarked) [Example 68]", "target system": "UniProt P00734", "quantity measured": "Kass Human Thrombin", "result": "600 × 10^6 (L/mole)"}
{"molecule": "Nc1cc(CCNC(=O)[C@@H]2CCCN2C(=O)[C@@H](CC2CCCCC2)NCC(=O)O)ccn1 [Example 76]", "target system": "UniProt P00734", "quantity measured": "Kass Human Thrombin", "result": "12 × 10^6 (L/mole)"}
{"molecule": "N=C(N)c1cccc(CCCNC(=O)[C@@H]2CCCN2C(=O)[C@@H]2NCC[C@@H]3CCCC[C@@H]32)c1 [Example 33]", "target system": "UniProt P00734", "quantity measured": "Kass Human Thrombin", "result": "0.04 × 10^6 (L/mole)"}
{"molecule": "Cl.N=C(N)c1cc(CNC(=O)[C@@H]2CCCN2C(=O)[C@@H](CC2CCCCC2)NCC(=O)O)cs1 [Example 65]", "target system": "UniProt P00734", "quantity measured": "Kass Human Thrombin", "result": "4,500 × 10^6 (L/mole)"}
{"molecule": "N=C(N)NCCCNC(=O)[C@@H]1CCCN1C(=O)[C@H](N)Cc1ccccc1 [Example 7, D-Phe-Pro-NH(CH2)3 NHC(NH)NH2.HCl]", "target system": "UniProt P00734", "quantity measured": "Kass Human Thrombin", "result": "1.9 × 10^6 (L/mole)"}
